B1: library; a variant is named by its letters at N, in order (parent)
chain: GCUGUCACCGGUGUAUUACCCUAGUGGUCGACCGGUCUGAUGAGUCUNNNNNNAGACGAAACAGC

Variants of: B1
Assay: normalized RNA/DNA level without ligand (relative to sTRSVctl = 100) (log10 (% of sTRSVctl)); ligand: hypoxanthine (xanthine aptamer); higher = less ribozyme self-cleavage, higher mRNA level
Details: HEK293T, reporter: mCherry (pCS4076), ligand present: no
observable: normalized RNA/DNA level without ligand (log10)

>>> value_reported("GUAGUA")
1.75
>>> value_reported("UCGGCU")
1.8
>>> value_reported("AGACGA")
1.62
>>> value_reported("GCAUUU")
1.88
>>> value_reported("GGGCGC")
1.7
>>> value_reported("AGCCGA")
1.68
>>> value_reported("UAUGGC")
1.82
>>> value_reported("AUUUUC")
1.93

These data points were gathered from the supplement of paper PMC6757056.
